Can you tell me normalized RNA/DNA level without ligand (log10) for the items I'm about to list?
B1: library; a variant is named by its letters at N, in order (parent)
chain: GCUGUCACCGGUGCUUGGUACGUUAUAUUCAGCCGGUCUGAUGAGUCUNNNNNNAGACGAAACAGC

# Variants of: B1
# TEST_SUMMARY: normalized RNA/DNA level without ligand (relative to sTRSVctl = 100) (log10 (% of sTRSVctl)); HEK293T overexpressing SLC46A1; higher = less ribozyme self-cleavage, higher mRNA level
# TEST_CONTEXT: without (6R,S)-folinic acid; ligand present: no
# respond with the number and nothing more

Data request: I am curious: what normalized RNA/DNA level without ligand (log10) value has been reported for GCUGUCACCGGUGCUUGGUACGUUAUAUUCAGCCGGUCUGAUGAGUCUACGCCCAGACGAAACAGC [ACGCCC] ?
Data returned: 2.05

Data request: I am curious: what normalized RNA/DNA level without ligand (log10) value has been reported for GCUGUCACCGGUGCUUGGUACGUUAUAUUCAGCCGGUCUGAUGAGUCUAUUAACAGACGAAACAGC [AUUAAC] ?
Data returned: 2.01

Data request: I am curious: what normalized RNA/DNA level without ligand (log10) value has been reported for GCUGUCACCGGUGCUUGGUACGUUAUAUUCAGCCGGUCUGAUGAGUCUAAGCUCAGACGAAACAGC [AAGCUC] ?
Data returned: 2.05

Data request: I am curious: what normalized RNA/DNA level without ligand (log10) value has been reported for GCUGUCACCGGUGCUUGGUACGUUAUAUUCAGCCGGUCUGAUGAGUCUAAUAAGAGACGAAACAGC [AAUAAG] ?
Data returned: 1.9

Data request: I am curious: what normalized RNA/DNA level without ligand (log10) value has been reported for GCUGUCACCGGUGCUUGGUACGUUAUAUUCAGCCGGUCUGAUGAGUCUAGGUCGAGACGAAACAGC [AGGUCG] ?
Data returned: 1.99

Data request: I am curious: what normalized RNA/DNA level without ligand (log10) value has been reported for GCUGUCACCGGUGCUUGGUACGUUAUAUUCAGCCGGUCUGAUGAGUCUUAUCGAAGACGAAACAGC [UAUCGA] ?
Data returned: 1.93

Data request: I am curious: what normalized RNA/DNA level without ligand (log10) value has been reported for GCUGUCACCGGUGCUUGGUACGUUAUAUUCAGCCGGUCUGAUGAGUCUGGACGCAGACGAAACAGC [GGACGC] ?
Data returned: 1.95

Data request: I am curious: what normalized RNA/DNA level without ligand (log10) value has been reported for GCUGUCACCGGUGCUUGGUACGUUAUAUUCAGCCGGUCUGAUGAGUCUUCACCGAGACGAAACAGC [UCACCG] ?
Data returned: 1.97

Data request: I am curious: what normalized RNA/DNA level without ligand (log10) value has been reported for GCUGUCACCGGUGCUUGGUACGUUAUAUUCAGCCGGUCUGAUGAGUCUCCCAACAGACGAAACAGC [CCCAAC] ?
Data returned: 2.04

Data request: I am curious: what normalized RNA/DNA level without ligand (log10) value has been reported for GCUGUCACCGGUGCUUGGUACGUUAUAUUCAGCCGGUCUGAUGAGUCUCAUGCCAGACGAAACAGC [CAUGCC] ?
Data returned: 2.06

Data request: I am curious: what normalized RNA/DNA level without ligand (log10) value has been reported for GCUGUCACCGGUGCUUGGUACGUUAUAUUCAGCCGGUCUGAUGAGUCUUAGUACAGACGAAACAGC [UAGUAC] ?
Data returned: 1.97

Data request: I am curious: what normalized RNA/DNA level without ligand (log10) value has been reported for GCUGUCACCGGUGCUUGGUACGUUAUAUUCAGCCGGUCUGAUGAGUCUCCUGAAAGACGAAACAGC [CCUGAA] ?
Data returned: 2

Data request: I am curious: what normalized RNA/DNA level without ligand (log10) value has been reported for GCUGUCACCGGUGCUUGGUACGUUAUAUUCAGCCGGUCUGAUGAGUCUCGACGAAGACGAAACAGC [CGACGA] ?
Data returned: 2

Data request: I am curious: what normalized RNA/DNA level without ligand (log10) value has been reported for GCUGUCACCGGUGCUUGGUACGUUAUAUUCAGCCGGUCUGAUGAGUCUGUCUGGAGACGAAACAGC [GUCUGG] ?
Data returned: 2.03

Data request: I am curious: what normalized RNA/DNA level without ligand (log10) value has been reported for GCUGUCACCGGUGCUUGGUACGUUAUAUUCAGCCGGUCUGAUGAGUCUUGUAGCAGACGAAACAGC [UGUAGC] ?
Data returned: 1.91

Data request: I am curious: what normalized RNA/DNA level without ligand (log10) value has been reported for GCUGUCACCGGUGCUUGGUACGUUAUAUUCAGCCGGUCUGAUGAGUCUUGUAUCAGACGAAACAGC [UGUAUC] ?
Data returned: 2.02

Data request: I am curious: what normalized RNA/DNA level without ligand (log10) value has been reported for GCUGUCACCGGUGCUUGGUACGUUAUAUUCAGCCGGUCUGAUGAGUCUAGAAAAAGACGAAACAGC [AGAAAA] ?
Data returned: 1.98

Data request: I am curious: what normalized RNA/DNA level without ligand (log10) value has been reported for GCUGUCACCGGUGCUUGGUACGUUAUAUUCAGCCGGUCUGAUGAGUCUAUGCCUAGACGAAACAGC [AUGCCU] ?
Data returned: 2.01

Data request: I am curious: what normalized RNA/DNA level without ligand (log10) value has been reported for GCUGUCACCGGUGCUUGGUACGUUAUAUUCAGCCGGUCUGAUGAGUCUGGUCCUAGACGAAACAGC [GGUCCU] ?
Data returned: 2.09

Data request: I am curious: what normalized RNA/DNA level without ligand (log10) value has been reported for GCUGUCACCGGUGCUUGGUACGUUAUAUUCAGCCGGUCUGAUGAGUCUCAAUGAAGACGAAACAGC [CAAUGA] ?
Data returned: 2

Data request: I am curious: what normalized RNA/DNA level without ligand (log10) value has been reported for GCUGUCACCGGUGCUUGGUACGUUAUAUUCAGCCGGUCUGAUGAGUCUUUCAUCAGACGAAACAGC [UUCAUC] ?
Data returned: 2.01

Data request: I am curious: what normalized RNA/DNA level without ligand (log10) value has been reported for GCUGUCACCGGUGCUUGGUACGUUAUAUUCAGCCGGUCUGAUGAGUCUACAUGUAGACGAAACAGC [ACAUGU] ?
Data returned: 2.02

Data request: I am curious: what normalized RNA/DNA level without ligand (log10) value has been reported for GCUGUCACCGGUGCUUGGUACGUUAUAUUCAGCCGGUCUGAUGAGUCUCAUGCAAGACGAAACAGC [CAUGCA] ?
Data returned: 2

Data request: I am curious: what normalized RNA/DNA level without ligand (log10) value has been reported for GCUGUCACCGGUGCUUGGUACGUUAUAUUCAGCCGGUCUGAUGAGUCUUAACAGAGACGAAACAGC [UAACAG] ?
Data returned: 1.83

Data request: I am curious: what normalized RNA/DNA level without ligand (log10) value has been reported for GCUGUCACCGGUGCUUGGUACGUUAUAUUCAGCCGGUCUGAUGAGUCUUCUGUCAGACGAAACAGC [UCUGUC] ?
Data returned: 2.06

Data request: I am curious: what normalized RNA/DNA level without ligand (log10) value has been reported for GCUGUCACCGGUGCUUGGUACGUUAUAUUCAGCCGGUCUGAUGAGUCUAUACUAAGACGAAACAGC [AUACUA] ?
Data returned: 1.97

Data request: I am curious: what normalized RNA/DNA level without ligand (log10) value has been reported for GCUGUCACCGGUGCUUGGUACGUUAUAUUCAGCCGGUCUGAUGAGUCUACUGGGAGACGAAACAGC [ACUGGG] ?
Data returned: 1.84

Data request: I am curious: what normalized RNA/DNA level without ligand (log10) value has been reported for GCUGUCACCGGUGCUUGGUACGUUAUAUUCAGCCGGUCUGAUGAGUCUGUGCACAGACGAAACAGC [GUGCAC] ?
Data returned: 1.93

Data request: I am curious: what normalized RNA/DNA level without ligand (log10) value has been reported for GCUGUCACCGGUGCUUGGUACGUUAUAUUCAGCCGGUCUGAUGAGUCUUAGCAAAGACGAAACAGC [UAGCAA] ?
Data returned: 1.92

Data request: I am curious: what normalized RNA/DNA level without ligand (log10) value has been reported for GCUGUCACCGGUGCUUGGUACGUUAUAUUCAGCCGGUCUGAUGAGUCUCGGAAGAGACGAAACAGC [CGGAAG] ?
Data returned: 1.94

Data request: I am curious: what normalized RNA/DNA level without ligand (log10) value has been reported for GCUGUCACCGGUGCUUGGUACGUUAUAUUCAGCCGGUCUGAUGAGUCUGUCGCGAGACGAAACAGC [GUCGCG] ?
Data returned: 1.96

Data request: I am curious: what normalized RNA/DNA level without ligand (log10) value has been reported for GCUGUCACCGGUGCUUGGUACGUUAUAUUCAGCCGGUCUGAUGAGUCUCGCCUAAGACGAAACAGC [CGCCUA] ?
Data returned: 2.05

Data request: I am curious: what normalized RNA/DNA level without ligand (log10) value has been reported for GCUGUCACCGGUGCUUGGUACGUUAUAUUCAGCCGGUCUGAUGAGUCUGUAAUCAGACGAAACAGC [GUAAUC] ?
Data returned: 2.09

Data request: I am curious: what normalized RNA/DNA level without ligand (log10) value has been reported for GCUGUCACCGGUGCUUGGUACGUUAUAUUCAGCCGGUCUGAUGAGUCUAUCACAAGACGAAACAGC [AUCACA] ?
Data returned: 2

Data request: I am curious: what normalized RNA/DNA level without ligand (log10) value has been reported for GCUGUCACCGGUGCUUGGUACGUUAUAUUCAGCCGGUCUGAUGAGUCUGGAUACAGACGAAACAGC [GGAUAC] ?
Data returned: 1.99

Data request: I am curious: what normalized RNA/DNA level without ligand (log10) value has been reported for GCUGUCACCGGUGCUUGGUACGUUAUAUUCAGCCGGUCUGAUGAGUCUUCCUACAGACGAAACAGC [UCCUAC] ?
Data returned: 2.02

Data request: I am curious: what normalized RNA/DNA level without ligand (log10) value has been reported for GCUGUCACCGGUGCUUGGUACGUUAUAUUCAGCCGGUCUGAUGAGUCUAAGGAGAGACGAAACAGC [AAGGAG] ?
Data returned: 1.79

Data request: I am curious: what normalized RNA/DNA level without ligand (log10) value has been reported for GCUGUCACCGGUGCUUGGUACGUUAUAUUCAGCCGGUCUGAUGAGUCUUGAGGCAGACGAAACAGC [UGAGGC] ?
Data returned: 1.98

Data request: I am curious: what normalized RNA/DNA level without ligand (log10) value has been reported for GCUGUCACCGGUGCUUGGUACGUUAUAUUCAGCCGGUCUGAUGAGUCUGUCGUUAGACGAAACAGC [GUCGUU] ?
Data returned: 2.03

Data request: I am curious: what normalized RNA/DNA level without ligand (log10) value has been reported for GCUGUCACCGGUGCUUGGUACGUUAUAUUCAGCCGGUCUGAUGAGUCUCAUGAGAGACGAAACAGC [CAUGAG] ?
Data returned: 1.94

Data request: I am curious: what normalized RNA/DNA level without ligand (log10) value has been reported for GCUGUCACCGGUGCUUGGUACGUUAUAUUCAGCCGGUCUGAUGAGUCUUCAUCGAGACGAAACAGC [UCAUCG] ?
Data returned: 2

Data request: I am curious: what normalized RNA/DNA level without ligand (log10) value has been reported for GCUGUCACCGGUGCUUGGUACGUUAUAUUCAGCCGGUCUGAUGAGUCUGACAGCAGACGAAACAGC [GACAGC] ?
Data returned: 2

Data request: I am curious: what normalized RNA/DNA level without ligand (log10) value has been reported for GCUGUCACCGGUGCUUGGUACGUUAUAUUCAGCCGGUCUGAUGAGUCUCAACACAGACGAAACAGC [CAACAC] ?
Data returned: 2.02

Data request: I am curious: what normalized RNA/DNA level without ligand (log10) value has been reported for GCUGUCACCGGUGCUUGGUACGUUAUAUUCAGCCGGUCUGAUGAGUCUAUCGGGAGACGAAACAGC [AUCGGG] ?
Data returned: 1.92

Data request: I am curious: what normalized RNA/DNA level without ligand (log10) value has been reported for GCUGUCACCGGUGCUUGGUACGUUAUAUUCAGCCGGUCUGAUGAGUCUUACUCAAGACGAAACAGC [UACUCA] ?
Data returned: 2

Data request: I am curious: what normalized RNA/DNA level without ligand (log10) value has been reported for GCUGUCACCGGUGCUUGGUACGUUAUAUUCAGCCGGUCUGAUGAGUCUGAGAUUAGACGAAACAGC [GAGAUU] ?
Data returned: 2.02

Where do these numbers come from? They come from the supplement of paper PMC6757056.
